These data points were gathered from the supplement of paper PMC10307832.

Tested on: ABC-1
Experiment: relative viability (nuclei count vs DMSO), 5 days (fraction); higher = more cells survive
Conditions: first compound 1 µM
Rule: relative viability below 0.3 gives fulfilled, anything at or above gives not fulfilled.

Task item: # check: relative viability < 0.3 for NC(=O)Nc1cc(-c2cccc(F)c2)sc1C(=O)N[C@H]1CCCNC1 [AZD7762] + COc1cccc2cc(-c3nc([C@H]4CC[C@H](C(=O)O)CC4)n4ncnc(N)c34)[nH]c12 [OSI-027] (partner 0.5 µM)
Reply: fulfilled

Task item: Same again, this time with NC(=O)Nc1cc(-c2cccc(F)c2)sc1C(=O)N[C@H]1CCCNC1 [AZD7762] + Cc1nc(NC(=O)N2CCC[C@H]2C(N)=O)sc1-c1ccnc(C(C)(C)C(F)(F)F)c1 [Alpelisib] (partner 2 µM)
Reply: not fulfilled

Task item: Same again, this time with NC(=O)Nc1cc(-c2cccc(F)c2)sc1C(=O)N[C@H]1CCCNC1 [AZD7762] + Cc1cc(Nc2cc(N3CCN(C)CC3)nc(Sc3ccc(NC(=O)C4CC4)cc3)n2)n[nH]1 [Tozasertib] (partner 0.1 µM)
Reply: fulfilled

Task item: Same again, this time with NC(=O)Nc1cc(-c2cccc(F)c2)sc1C(=O)N[C@H]1CCCNC1 [AZD7762] + C[C@]1(O)C[C@@H](c2nc(-c3ccc4ccc(-c5ccccc5)nc4c3)c3c(N)nccn32)C1 [Linsitinib] (partner 1 µM)
Reply: fulfilled

Task item: Same again, this time with NC(=O)Nc1cc(-c2cccc(F)c2)sc1C(=O)N[C@H]1CCCNC1 [AZD7762] + CC(=O)c1c(C)c2cnc(Nc3ccc(N4CCNCC4)cn3)nc2n(C2CCCC2)c1=O [Palbociclib] (partner 0.5 µM)
Reply: not fulfilled

---

System: EKVX
Assay: relative viability (nuclei count vs DMSO), 5 days (fraction); higher = more cells survive
Details: first compound 0.1 µM
endpoint-name: relative viability
One number for each entry.

{"compound": "NC(=O)Nc1cc(-c2cccc(F)c2)sc1C(=O)N[C@H]1CCCNC1 [AZD7762] + COc1cc2c(Oc3ccc(NC(=O)C4(C(=O)Nc5ccc(F)cc5)CC4)cc3F)ccnc2cc1OCCCN1CCOCC1 [Foretinib] (partner 0.25 µM)", "relative viability": 0.956}

Task item: Please give the measured relative viability for this compound: NC(=O)Nc1cc(-c2cccc(F)c2)sc1C(=O)N[C@H]1CCCNC1 [AZD7762] + C[C@]1(O)C[C@@H](c2nc(-c3ccc4ccc(-c5ccccc5)nc4c3)c3c(N)nccn32)C1 [Linsitinib] (partner 1 µM)
Reply: 0.844

---

Test system: NCI-H2126
Experiment: relative viability (nuclei count vs DMSO), 5 days (fraction); higher = more cells survive
Conditions: first compound 2.53 µM
endpoint-name: relative viability
Give bare numbers.

Answered examples (6):
{"molecule": "Oc1nc(-c2ccc(C(F)(F)F)cc2)nc2c1CSCC2 [XAV939] + C[C@@H](Oc1cc(-c2cnn(C3CCNCC3)c2)cnc1N)c1c(Cl)ccc(F)c1Cl [Crizotinib] (partner 1 µM)", "relative viability": 0.828}
{"molecule": "Oc1nc(-c2ccc(C(F)(F)F)cc2)nc2c1CSCC2 [XAV939] + CC1(C)CCC(c2ccc(Cl)cc2)=C(CN2CCN(c3ccc(C(=O)NS(=O)(=O)c4ccc(N[C@H](CCN5CCOCC5)CSc5ccccc5)c(S(=O)(=O)C(F)(F)F)c4)cc3)CC2)C1 [Navitoclax] (partner 0.5 µM)", "relative viability": 0.739}
{"molecule": "C=C1C(=O)O[C@@H](CCCCCCCC)[C@@H]1C(=O)O [C-75] + NC(=O)Nc1cc(-c2cccc(F)c2)sc1C(=O)N[C@H]1CCCNC1 [AZD7762] (partner 0.2 µM)", "relative viability": 0.886}
{"molecule": "C=C1C(=O)O[C@@H](CCCCCCCC)[C@@H]1C(=O)O [C-75] + C[C@]1(O)C[C@@H](c2nc(-c3ccc4ccc(-c5ccccc5)nc4c3)c3c(N)nccn32)C1 [Linsitinib] (partner 1 µM)", "relative viability": 0.683}
{"molecule": "C=C1C(=O)O[C@@H](CCCCCCCC)[C@@H]1C(=O)O [C-75] + C[C@@H](Oc1cc(-c2cnn(C3CCNCC3)c2)cnc1N)c1c(Cl)ccc(F)c1Cl [Crizotinib] (partner 1 µM)", "relative viability": 0.735}
{"molecule": "C=C1C(=O)O[C@@H](CCCCCCCC)[C@@H]1C(=O)O [C-75] + CC(=O)c1c(C)c2cnc(Nc3ccc(N4CCNCC4)cn3)nc2n(C2CCCC2)c1=O [Palbociclib] (partner 0.5 µM)", "relative viability": 0.349}

Task item: Please state recorded relative viability (tested on NCI-H2126) of Oc1nc(-c2ccc(C(F)(F)F)cc2)nc2c1CSCC2 [XAV939] + CCNC(=O)c1noc(-c2cc(C(C)C)c(O)cc2O)c1-c1ccc(CN2CCOCC2)cc1 [Luminespib] (partner 0.01 µM)
Reply: 0.733

---

Tested on: NCI-H838
Assay: relative viability (nuclei count vs DMSO), 5 days (fraction); higher = more cells survive
Conditions: first compound 0.4 µM
Rule: relative viability below 1 gives fulfilled, anything at or above gives not fulfilled.

{"compound": "O=C(O)c1ccc(-c2c[nH]c3ncc(-c4ccccc4)cc23)cc1C1CCCC1 + Nc1ncn([C@H]2C[C@H](O)[C@@H](CO)O2)c(=O)n1 [Decitabine] (partner 2 µM)", "label-class": "fulfilled"}
{"compound": "O=C(O)c1ccc(-c2c[nH]c3ncc(-c4ccccc4)cc23)cc1C1CCCC1 + Cc1nc(Nc2ncc(C(=O)Nc3c(C)cccc3Cl)s2)cc(N2CCN(CCO)CC2)n1 [Dasatinib] (partner 0.075 µM)", "label-class": "fulfilled"}
{"compound": "O=C(O)c1ccc(-c2c[nH]c3ncc(-c4ccccc4)cc23)cc1C1CCCC1 + CC(C)C[C@H](NC(=O)[C@H](Cc1ccccc1)NC(=O)c1cnccn1)B(O)O [Bortezomib] (partner 0.002 µM)", "label-class": "fulfilled"}

Task item: # check: relative viability < 1 for O=C(O)c1ccc(-c2c[nH]c3ncc(-c4ccccc4)cc23)cc1C1CCCC1 + C[C@]1(O)C[C@@H](c2nc(-c3ccc4ccc(-c5ccccc5)nc4c3)c3c(N)nccn32)C1 [Linsitinib] (partner 1 µM)
Reply: not fulfilled

Task item: Same again, this time with O=C(O)c1ccc(-c2c[nH]c3ncc(-c4ccccc4)cc23)cc1C1CCCC1 + Cc1nc(NC(=O)N2CCC[C@H]2C(N)=O)sc1-c1ccnc(C(C)(C)C(F)(F)F)c1 [Alpelisib] (partner 2 µM)
Reply: not fulfilled

---

System: LOU-NH91
Assay: relative viability (nuclei count vs DMSO), 5 days (fraction); higher = more cells survive
Conditions: first compound 0.1 µM
Please respond with reported relative viability for every item in the list.
Give bare numbers.

Answered examples (4):
{"compound": "NC(=O)Nc1cc(-c2cccc(F)c2)sc1C(=O)N[C@H]1CCCNC1 [AZD7762] + Nc1ncn([C@H]2C[C@H](O)[C@@H](CO)O2)c(=O)n1 [Decitabine] (partner 2 µM)", "relative viability": 0.816}
{"compound": "NC(=O)Nc1cc(-c2cccc(F)c2)sc1C(=O)N[C@H]1CCCNC1 [AZD7762] + Cc1cc(Nc2cc(N3CCN(C)CC3)nc(Sc3ccc(NC(=O)C4CC4)cc3)n2)n[nH]1 [Tozasertib] (partner 0.1 µM)", "relative viability": 0.665}
{"compound": "NC(=O)Nc1cc(-c2cccc(F)c2)sc1C(=O)N[C@H]1CCCNC1 [AZD7762] + O=C(CCCCCCC(=O)Nc1ccccc1)NO [Vorinostat] (partner 1 µM)", "relative viability": 0.917}
{"compound": "NC(=O)Nc1cc(-c2cccc(F)c2)sc1C(=O)N[C@H]1CCCNC1 [AZD7762] + C[C@]1(O)C[C@@H](c2nc(-c3ccc4ccc(-c5ccccc5)nc4c3)c3c(N)nccn32)C1 [Linsitinib] (partner 1 µM)", "relative viability": 0.933}

Now examine the next entry.
Task item: Please give the measured relative viability for this compound: NC(=O)Nc1cc(-c2cccc(F)c2)sc1C(=O)N[C@H]1CCCNC1 [AZD7762] + CS(=O)(=O)N1CCN(Cc2cc3nc(-c4cccc5[nH]ncc45)nc(N4CCOCC4)c3s2)CC1 [Pictilisib] (partner 1 µM)
Reply: 0.473

---

System: PC-3 [JPC-3]
Assay: relative viability (nuclei count vs DMSO), 5 days (fraction); higher = more cells survive
Conditions: first compound 0.5 µM
Please respond with reported relative viability for every item in the list.

{"molecule": "CC1(C)CCC(c2ccc(Cl)cc2)=C(CN2CCN(c3ccc(C(=O)NS(=O)(=O)c4ccc(N[C@H](CCN5CCOCC5)CSc5ccccc5)c(S(=O)(=O)C(F)(F)F)c4)cc3)CC2)C1 [Navitoclax] + CS(=O)(=O)N1CCN(Cc2cc3nc(-c4cccc5[nH]ncc45)nc(N4CCOCC4)c3s2)CC1 [Pictilisib] (partner 1 µM)", "relative viability": 0.75}

Now examine the next entry.
Task item: Please give the measured relative viability for this molecule: CC1(C)CCC(c2ccc(Cl)cc2)=C(CN2CCN(c3ccc(C(=O)NS(=O)(=O)c4ccc(N[C@H](CCN5CCOCC5)CSc5ccccc5)c(S(=O)(=O)C(F)(F)F)c4)cc3)CC2)C1 [Navitoclax] + C[C@@H](Oc1cc(-c2cnn(C3CCNCC3)c2)cnc1N)c1c(Cl)ccc(F)c1Cl [Crizotinib] (partner 1 µM)
Reply: 0.963
